Here, each record is paired with measured OD 450 nm data.
- experimentalSystem: SARS-CoV-2 Spike (S) trimer (SARS-CoV-2, UniProt P0DTC2 16-1213)
- procedureSummary: ELISA on coated S trimer, 1:50
Quick note: give the figure in OD, leave out the unit.

binder="AB-009251 (antibody, V domains shown) V domain 1: QVQLVQSGAEVKKPGASVKVSCKTSGYTFTTFYIHWVRQVPGQGLEWMGIINPDGGSTNYAQEFQARVTMTTDTSTSTAYMELSSLRFEDTAVFYCATSLGAPPGLSPRTGPQRRGPPGFDFWGQGTLITVSA V domain 2: QSVLTQPPSVSGAPGQRVTISCTGSSSNIGAGYDVHWYQQLPGTAPKLLIFDNNNRPSGVPYRFSGSRSGTSASLAITGLQPEDEADYYCQSYDSSLSGRVFGGGTRVTVL" readouttype="OD 450 nm" measureunit=OD readoutnumber=0.886

Q. Using known records, supply OD 450 nm for AB-009083 (antibody, V domains shown) VH: EVHLLESGGGLVQPGGSLTLTCAASGFSFGNYVMGWVRQAPGKGLEWVSSIFGSGANPHYGGSVKGRFTISRDNSQNTLFLQMDSLTAEDTAVYYCARDGGTMVGGIITGGFNYFDSWGQGTLVTVSS VL: EIVLTQSPASLSLSPGGWATLSCRASRSIGNSLAWYQQRPGQAPRLLIYDASNRATGIPARFSGSGSGTDFTLTISSLEPEDFAIYYCQQRNSWPPLYTFGQGTKLEIK
A. 0.249

Q. Using known records, supply OD 450 nm for AB-009214 (antibody, V domains shown) VH: QVQLVESGGGVVQPGRSLRLSCAASGFTFSSYGMHWVRQAPGKGLEWVAVIWYDGSNKYYADSVKGRFTISRDNSKNTLYLQMNSLRAEDTAVYYCARDEPPSYYGSGSRFDYWGQGTLVTVSS VL: SYELTQPPSVSVSPGQTARITCSGDALPKKYAYWYQQKSGQAPVLVIYEDSKRPSGIPERFSGSSSGTMATLTISGAQVEDEADYYCYSTDSSGNHWVFGGGTKLTVL
A. 0.691
